System: ASK2;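 also: KINOMEscan kinase panel screen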
Construct: gene MAP3K6
Conditions: concentration: 1 μM, replicates: in singlicate; n = 1
Experimental readout: %Inh (%)
Answers are plain numbers, in %.

Give one value of %Inh per listed compound.
1. Cc1cc(-c2ccc3c(c2)CC[C@@H](N[C@@H](C)c2ccccc2)C3)cnc1N.Cl [GW412617]
2. CC1=C(C(=O)Nc2cc3cn[nH]c3cc2F)C(c2ccc(C(F)(F)F)cc2)CC(=O)N1 (stereo not shown) [GSK429286]

A)
0
24

Give one value of %Inh per listed compound.
1. Fc1cc(Cl)ccc1Nc1ccnc2cc(-c3ccc(CN4CCCCC4)o3)ccc12 [GW560116]
2. COC(=O)c1c(-c2ccccc2)c2cc(C(=O)O)ccc2c(=O)n1Cc1ccccc1

A)
1: 0; 2: 0
